Assay name: Half life in ICR mouse at 5 mg/kg, po measured upto 24 hrs by LCMS analysis
Format: ADME, organism-based
Measurement context: in vivo
Measured property: half-life (h)

C[C@H](Nc1nccc(N2C(=O)OC[C@@H]2[C@H](C)F)n1)c1ncn2c1COc1cc(C(F)(F)F)ccc1-2	2.5
C[C@H](Nc1nccc(N2C(=O)OC[C@@H]2[C@H](C)F)n1)c1ncn2c1CCc1cc(C(F)(F)F)ccc1-2	2.5
N#Cc1ccnc(N2C(=O)CC[C@H]2C(=O)N(c2cncc(F)c2)[C@H](C(=O)NC2CC(F)(F)C2)c2ccccc2Cl)c1	3.5
C[C@H](Nc1nccc(N2C(=O)OC[C@@H]2[C@H](C)F)n1)c1ncn2c1COc1cc(Cl)ccc1-2	2.4
CC(C)[C@H]1COC(=O)N1c1ccnc(N[C@@H](C)c2ncn3c2CCc2cc(C(F)(F)F)ccc2-3)n1	2
C[C@H](Nc1nccc(N2C(=O)OC[C@@H]2[C@H](C)F)n1)c1ncn2c1CCc1cc(Cl)ccc1-2	3.4
C[C@H](Nc1ncc(F)c(N2C(=O)OC[C@@H]2[C@H](C)F)n1)c1ncn2c1CCc1cc(C(F)(F)F)ccc1-2	2.5
